Source: patent US20260355191A1

Test Summary: Pharmacokinetic study in mice
Assay type: in vivo
Condition Context: mouse, blood, po; male CD-1 mice, i.v. 1 mpk; p.o. 2 mpk
Recorded Metric: bioavailability (%)
Field format: number, assumed %, no unit text.

Sample records with bioavailability:
| Compound | bioavailability (%) |
| --- | --- |
| CCn1c(-c2cc(-c3nnc(C4CCN(C5COC5)CC4)o3)cnc2[C@H](C)OC)c2c3cc(ccc31)-c1csc(n1)C[C@H](NC(=O)[C@H]1[C@H](C)[C@@H]1C)C(=O)N1CCC[C@H](N1)C(=O)OCC(C)(C)C2 (atropisomer, axis not shown) | 24.5 |
| CO[C@@H](C)c1ncc(-c2nnc(C3CCN(C4COC4)CC3)o2)cc1-c1c2c3cc(ccc3n1CC(F)(F)F)-c1csc(n1)C[C@H](NC(=O)[C@H]1[C@H](C)[C@@H]1C)C(=O)N1CCC[C@H](N1)C(=O)OCC(C)(C)C2 (atropisomer, axis not shown) | 43.1 |

Then there is this compound:
Given the compound CO[C@@H](C)c1ncc(-c2nnc(C3CCN(C4COC4)CC3)o2)cc1-c1c2c3cc(ccc3n1CC(F)(F)F)-c1csc(n1)C[C@H](NC(=O)C1C[C@@H]1C)C(=O)N1N[C@H](C(=O)OCC(C)(C)C2)C2CC1C2 (stereo partly drawn) , what is its reported bioavailability?
63.3
